- Target Desc: Estrogen receptor (Mus musculus) (UniProt O08537+P19785)
- Sequence (O08537 whole entry, looked up): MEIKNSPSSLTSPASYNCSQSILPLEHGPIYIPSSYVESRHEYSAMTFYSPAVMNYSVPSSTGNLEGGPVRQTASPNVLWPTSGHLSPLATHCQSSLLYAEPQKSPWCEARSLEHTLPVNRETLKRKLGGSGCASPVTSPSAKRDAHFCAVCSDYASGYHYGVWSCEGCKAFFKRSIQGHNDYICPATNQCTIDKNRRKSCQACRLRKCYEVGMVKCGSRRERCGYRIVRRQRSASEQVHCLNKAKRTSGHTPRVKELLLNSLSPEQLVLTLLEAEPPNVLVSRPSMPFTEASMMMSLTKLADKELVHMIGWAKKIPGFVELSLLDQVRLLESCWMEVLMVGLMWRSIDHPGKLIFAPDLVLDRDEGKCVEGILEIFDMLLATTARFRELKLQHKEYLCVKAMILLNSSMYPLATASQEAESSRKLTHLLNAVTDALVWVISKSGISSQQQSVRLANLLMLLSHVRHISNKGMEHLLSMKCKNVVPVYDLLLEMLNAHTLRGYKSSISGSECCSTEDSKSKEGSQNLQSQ
- Sequence (P19785 whole entry, looked up): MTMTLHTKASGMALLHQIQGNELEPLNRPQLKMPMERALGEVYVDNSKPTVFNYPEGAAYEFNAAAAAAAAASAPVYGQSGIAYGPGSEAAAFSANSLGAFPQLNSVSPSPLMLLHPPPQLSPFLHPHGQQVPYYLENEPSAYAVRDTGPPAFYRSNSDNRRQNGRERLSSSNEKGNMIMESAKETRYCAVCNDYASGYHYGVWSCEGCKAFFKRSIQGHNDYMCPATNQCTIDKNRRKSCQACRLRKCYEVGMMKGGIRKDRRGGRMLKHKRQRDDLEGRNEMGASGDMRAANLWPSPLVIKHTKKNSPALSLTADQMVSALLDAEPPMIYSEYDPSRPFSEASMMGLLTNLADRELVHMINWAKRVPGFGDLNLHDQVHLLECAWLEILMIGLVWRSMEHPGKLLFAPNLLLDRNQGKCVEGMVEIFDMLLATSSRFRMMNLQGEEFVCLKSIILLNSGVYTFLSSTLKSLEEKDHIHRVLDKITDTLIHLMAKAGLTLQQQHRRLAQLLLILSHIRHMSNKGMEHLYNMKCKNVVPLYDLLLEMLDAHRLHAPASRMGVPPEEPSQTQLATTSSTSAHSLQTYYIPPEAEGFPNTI
- Assay Procedure: Anti-estrogenic activity in mouse uterotrophic assay at 100 ug
- Assay type: functional
- Design: unit not given here
Measured Endpoint: Activity

I = CCC(c1ccc(N)c(O)c1)C(CC)c1ccc(N)c(O)c1 (stereo unspecified)
II = CCC(c1ccc(F)c(O)c1)C(CC)c1ccc(F)c(O)c1 (stereo unspecified)
Could you tell me which of these two has the smaller Activity figure? First: I Second: II Provide the label of your selected option as the answer. II
(II: 22.4, I: 42.3)

###

- Target Desc: Estrogen receptor (Mus musculus) (UniProt O08537+P19785)
- Assay Procedure: Estrogenic activity in mouse uterotrophic assay at 1000 ug
- Type: functional
- Parameters: unit not given here
Measured Endpoint: Activity

Example entries begin here.
CCC(c1ccc(N)c(O)c1)C(CC)c1ccc(N)c(O)c1 (stereo not given) | 36.6
CCC(c1cc(O)ccc1Cl)C(CC)c1cc(O)ccc1Cl (stereo not given) | 38.5
CCC(c1ccc(C)c(O)c1)C(CC)c1ccc(C)c(O)c1 (stereo not given) | 43.5

A = CCC(c1cc(O)ccc1F)C(CC)c1cc(O)ccc1F (stereo not given)
B = CCC(c1cc(O)ccc1C)C(CC)c1cc(O)ccc1C (stereo not given)
// which entry has the larger Activity value, A or B ? I would appreciate it if you answered with the label of your choice. B
